Source of measurements: paper PMC9363231

target: HLA-DRB1*15:01 (Homo sapiens, UniProt P01903+P01911); assay: biochemical; assay type: binding
Outcome Measure: pIC50
# log scale: pIC50 equals minus log10 of the concentration in mol/L

Reported pIC50 of CC(C)[C@H](NC(=O)CNC(=O)[C@H](Cc1ccc(O)cc1)NC(=O)[C@H](CS)NC(=O)[C@H](CCCCN)NC(=O)[C@H](Cc1ccccc1)NC(=O)[C@@H](NC(=O)[C@H](CO)NC(=O)[C@H](Cc1ccccc1)NC(=O)[C@H](CO)NC(=O)[C@H](C)NC(=O)[C@@H](N)CO)[C@@H](C)O)C(=O)N[C@@H](CO)C(=O)N1CCC[C@H]1C(=O)N[C@H](C(=O)O)[C@@H](C)O [peptide 75] : 6.15

Reported pIC50 of CSCC[C@H](NC(=O)[C@H](CC(C)C)NC(=O)[C@H](Cc1ccccc1)NC(=O)[C@@H]1CCCN1C(=O)[C@H](CCC(N)=O)NC(=O)[C@H](CO)NC(=O)[C@@H](NC(=O)[C@H](Cc1ccc(O)cc1)NC(=O)[C@H](CCC(=O)O)NC(=O)[C@H](Cc1ccccc1)NC(=O)[C@@H](NC(=O)[C@@H](N)CS)[C@@H](C)O)C(C)C)C(=O)N[C@@H](CC(=O)O)C(=O)N[C@@H](CC(C)C)C(=O)N[C@@H](CCC(=O)O)C(=O)O [peptide 34] : 5.14

Reported pIC50 of CC[C@H](C)[C@H](NC(=O)[C@H](Cc1ccccc1)NC(=O)[C@@H](N)CO)C(=O)N[C@@H](CCC(=O)O)C(=O)N[C@@H](CC(=O)O)C(=O)N[C@@H](CC(C)C)C(=O)N[C@@H](CC(C)C)C(=O)N[C@@H](Cc1ccccc1)C(=O)N[C@@H](CC(N)=O)C(=O)N[C@@H](CCCCN)C(=O)N[C@H](C(=O)N[C@H](C(=O)N[C@@H](CC(C)C)C(=O)N[C@@H](C)C(=O)N[C@@H](CC(=O)O)C(=O)O)[C@@H](C)O)C(C)C [peptide 164] : 5.50

Reported pIC50 of CC[C@H](C)[C@H](NC(=O)[C@H](CCCCN)NC(=O)[C@@H](N)Cc1ccccc1)C(=O)N[C@@H](Cc1ccc(O)cc1)C(=O)N[C@@H](CO)C(=O)N[C@@H](CCCCN)C(=O)N[C@@H](Cc1c[nH]cn1)C(=O)N[C@H](C(=O)N1CCC[C@H]1C(=O)N[C@H](C(=O)N[C@@H](CC(N)=O)C(=O)N[C@@H](CC(C)C)C(=O)N[C@H](C(=O)N[C@@H](CCCNC(=N)N)C(=O)N[C@@H](CC(=O)O)C(=O)O)C(C)C)[C@@H](C)CC)[C@@H](C)O [peptide 41] : 6.21

Reported pIC50 of CC(C)C[C@H](NC(=O)[C@H](C)NC(=O)[C@H](CC(C)C)NC(=O)[C@H](CC(C)C)NC(=O)[C@@H](NC(=O)[C@H](CCC(N)=O)NC(=O)[C@H](Cc1ccccc1)NC(=O)[C@H](CCCNC(=N)N)NC(=O)[C@@H](N)[C@@H](C)O)[C@@H](C)O)C(=O)N[C@@H](Cc1c[nH]cn1)C(=O)N[C@@H](CCCNC(=N)N)C(=O)N[C@@H](CO)C(=O)N[C@@H](Cc1ccc(O)cc1)C(=O)N[C@@H](CC(C)C)C(=O)N[C@H](C(=O)O)[C@@H](C)O [peptide 48] : 8.30

Reported pIC50 of CC[C@H](C)[C@H](N)C(=O)N1CCC[C@H]1C(=O)N[C@@H](Cc1ccccc1)C(=O)N[C@@H](C)C(=O)N[C@@H](CCSC)C(=O)N[C@@H](CCC(N)=O)C(=O)N[C@@H](CCSC)C(=O)N[C@@H](C)C(=O)N[C@@H](Cc1ccc(O)cc1)C(=O)N[C@@H](CCCNC(=N)N)C(=O)N[C@@H](Cc1ccccc1)C(=O)N[C@@H](CC(N)=O)C(=O)NCC(=O)N[C@H](C(=O)NCC(=O)O)[C@@H](C)CC [peptide 180] : 6.72
